Some compounds, each annotated with its measured DC50.
Biological target: EGFR T790M/L858R/C797S (Homo sapiens, UniProt P00533, C797S/L858R/T790M)
Construct: expressed in transfected cells; host or cells: BaF3 (murine pro-B) cells stably transduced with pCDH lentiviral vector, PGK promoter
Sequence (P00533 25-1210 T790M/C797S/L858R): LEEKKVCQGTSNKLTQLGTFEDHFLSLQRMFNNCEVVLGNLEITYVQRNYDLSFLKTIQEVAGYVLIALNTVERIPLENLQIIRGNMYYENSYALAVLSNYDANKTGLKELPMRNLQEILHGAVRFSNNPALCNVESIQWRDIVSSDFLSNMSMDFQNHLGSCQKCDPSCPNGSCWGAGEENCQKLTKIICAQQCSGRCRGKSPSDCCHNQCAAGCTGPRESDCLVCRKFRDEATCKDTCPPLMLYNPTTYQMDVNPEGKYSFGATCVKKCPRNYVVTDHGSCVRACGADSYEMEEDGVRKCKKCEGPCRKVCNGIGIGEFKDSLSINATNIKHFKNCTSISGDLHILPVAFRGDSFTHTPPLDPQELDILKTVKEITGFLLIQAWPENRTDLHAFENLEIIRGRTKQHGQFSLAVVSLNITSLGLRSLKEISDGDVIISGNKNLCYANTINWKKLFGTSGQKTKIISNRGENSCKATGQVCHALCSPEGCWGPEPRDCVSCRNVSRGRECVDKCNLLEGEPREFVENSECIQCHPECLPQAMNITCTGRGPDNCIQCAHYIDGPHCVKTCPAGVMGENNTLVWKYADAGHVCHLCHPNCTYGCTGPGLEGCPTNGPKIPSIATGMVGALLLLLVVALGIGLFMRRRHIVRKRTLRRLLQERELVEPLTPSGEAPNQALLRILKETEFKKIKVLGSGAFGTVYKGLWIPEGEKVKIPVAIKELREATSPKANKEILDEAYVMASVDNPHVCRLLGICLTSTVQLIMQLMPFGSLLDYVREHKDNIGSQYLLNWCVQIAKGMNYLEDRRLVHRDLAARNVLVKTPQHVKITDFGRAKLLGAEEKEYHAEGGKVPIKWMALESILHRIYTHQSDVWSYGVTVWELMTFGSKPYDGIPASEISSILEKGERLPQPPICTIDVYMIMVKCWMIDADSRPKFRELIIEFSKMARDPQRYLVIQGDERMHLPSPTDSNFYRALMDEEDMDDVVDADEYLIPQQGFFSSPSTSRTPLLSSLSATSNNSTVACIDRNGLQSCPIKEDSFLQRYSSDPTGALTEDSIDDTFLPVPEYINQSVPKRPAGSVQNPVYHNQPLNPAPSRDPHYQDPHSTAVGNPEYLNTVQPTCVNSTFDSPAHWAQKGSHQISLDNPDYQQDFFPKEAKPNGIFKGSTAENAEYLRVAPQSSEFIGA
Experiment: EGFR Degradation Assay (Cellular), FRET quantification of total EGFR
Assay type: cell-based
Details: BaF3 EGFR mutant cell line (EGFR T790M/L858R/C797S); 4-hour incubation; total EGFR FRET kit; top concentration 1 μM, 11 points; read-out: IC50 [nM] mutant EGFR degradation
Only the number, expressed in nM, is required.

{"compound": "COC1CCN(c2nccc(Nc3cc4c(cn3)c(C(=O)NC3CCN(CCCCCCNc5cccc6c5C(=O)N(C5CCC(=O)NC5=O)C6=O)CC3)cn4C(C)C)n2)CC1(F)F (racemic) [Example 3]", "readout": "DC50", "unit spec": "nM", "observed result": 44}
{"compound": "COC1CCN(c2nccc(Nc3cc4c(cn3)c(N3CCC(C(=O)NC5CCN(CCCCCCNc6cccc7c6C(=O)N(C6CCC(=O)NC6=O)C7=O)CC5)C3)nn4C(C)C)n2)CC1 (racemic) [Example 6]", "readout": "DC50", "unit spec": "nM", "observed result": 46}
{"compound": "CO[C@H]1CCN(c2nccc(Nc3cc4c(cn3)c(C(=O)NC3CCN(CCCCCNc5cccc6c5C(=O)N(C5CCC(=O)NC5=O)C6=O)CC3)cn4C(C)C)n2)C[C@H]1F (mixture of isomers) [Example 9]", "readout": "DC50", "unit spec": "nM", "observed result": 26}
{"compound": "CO[C@H]1CCN(c2nccc(Nc3cc4c(cn3)c(C(=O)NC3CCN(CCCCC5CCN(c6ccc7c(c6)C(=O)N(C6CCC(=O)NC6=O)C7=O)CC5)CC3)cn4C(C)C)n2)C[C@H]1F (mixture of isomers) [Example 19]", "readout": "DC50", "unit spec": "nM", "observed result": 73}
{"compound": "CO[C@H]1CCN(c2nccc(Nc3cc4c(cn3)c(C(=O)NC3CCN(CCCCCCNc5cccc6c5C(=O)N(C5CCC(=O)NC5=O)C6=O)CC3)cn4C3CCCC3)n2)C[C@H]1F (mixture of isomers) [Example 10]", "readout": "DC50", "unit spec": "nM", "observed result": 85}

CO[C@H]1CCN(c2nccc(Nc3cc4c(cn3)c(C(=O)NC3CCN(CCCCCCNc5cccc6c5C(=O)N(C5CCC(=O)NC5=O)C6=O)CC3)cn4C(C)C)n2)C[C@H]1F (mixture of isomers) [Example 5] has a reported DC50 of 28

----------
Target: EGFR T790M/L858R/C797S (Homo sapiens, UniProt P00533, C797S/L858R/T790M)
Construct: expressed in transfected cells; host or cells: BaF3 (murine pro-B) cells stably transduced with pCDH lentiviral vector, PGK promoter
Assay: EGFR Degradation Assay (Cellular), FRET quantification of total EGFR
Format: cell-based
Details: BaF3 EGFR mutant cell line (EGFR T790M/L858R/C797S); 4-hour incubation; total EGFR FRET kit; top concentration 1 μM, 11 points; read-out: IC50 [nM] mutant EGFR degradation
# DC50 listing for each entry below
# output: bare number, implied unit nM

Would you please look over these solved cases?
{"compound": "CO[C@@H]1CCN(c2nccc(Nc3cc4c(cn3)c(C(=O)NC3CCN(CCCCCCNc5cccc6c5C(=O)N(C5CCC(=O)NC5=O)C6=O)CC3)cn4C(C)C)n2)C[C@@H]1F (mixture of isomers)", "observed result": 46}
{"compound": "CO[C@H]1CCN(c2nccc(Nc3cc4c(cn3)c(C(=O)NC3CCN(CCCOC5CCN(c6cccc7c6C(=O)N(C6CCC(=O)NC6=O)C7=O)CC5)CC3)cn4C3CCCC3)n2)C[C@H]1F (single isomer, unassigned)", "observed result": 45}
{"compound": "CO[C@H]1CCN(c2nccc(Nc3cc4c(cn3)c(C(=O)NC3CCN(CCC5CCN(c6ccc7c(c6)C(=O)N(C6CCC(=O)NC6=O)C7=O)CC5)CC3)cn4C3CCCC3)n2)C[C@H]1F (mixture of isomers)", "observed result": 49}
{"compound": "CO[C@H]1CCN(c2nccc(Nc3cc4c(cn3)c(C(=O)NC3CCN(CCCCCNc5cccc6c5C(=O)N(C5CCC(=O)NC5=O)C6=O)CC3)cn4C3CCCC3)n2)C[C@H]1F (mixture of isomers)", "observed result": 43}
{"compound": "CO[C@H]1CCN(c2nccc(Nc3cc4c(cn3)c(C(=O)NC3CCN(CCCOC5CCN(c6cccc7c6C(=O)N(C6CCC(=O)NC6=O)C7=O)CC5)CC3)cn4C(C)C)n2)C[C@H]1F (mixture of isomers)", "observed result": 74}

// field: DC50; key: CO[C@H]1CCN(c2nccc(Nc3cc4c(cn3)c(C(=O)NC3CCN(CCC5CCN(c6ccc7c(c6)C(=O)N(C6CCC(=O)NC6=O)C7=O)CC5)CC3)cn4C(C)C)n2)C[C@H]1F (mixture of isomers) ; value = 28

DC50 for COC1CCN(c2nccc(Nc3cc4c(cn3)c(C(=O)NC3CCN(CCCCCCNc5cccc6c5C(=O)N(C5CCC(=O)NC5=O)C6=O)CC3)cn4C3CCCC3)n2)CC1 (racemic) is 38

Per the record, COC1CCN(c2nccc(Nc3cc4c(cn3)c(C(=O)NC3CCN(CCCCCCNc5cccc6c5C(=O)N(C5CCC(=O)NC5=O)C6=O)CC3)cn4C(C)C)n2)CC1 (racemic) has DC50 of 132
